Tested on: HCV replicon (HCV 1b-377-neo replicon cells)
Assay: HCV replicon cell line FRET assay
Format: cell-based
Conditions: Hepatitis C virus; HCV replicon cell line, FRET assay; read-out: Replicon Inhibition Range EC50
outcome-measure: EC50

Look at this molecule and give its reported EC50. O=C(Nc1ccc(C2SC3=Nc4ccccc4CN3C2=O)cc1)[C@H]1CCCN1C(=O)OCc1ccccc1 (stereo partly drawn)
100 to 1000 nM

Record: C[C@H](NC(=O)OCc1ccccc1)C(=O)Nc1ccc(C2S/C(=N\c3ccc(N4CCOCC4)cc3)N(Cc3ccncc3)C2=O)cc1 (stereo partly drawn)
< 100 nM

Now consider CCC(C)c1ccc(/N=C2\SC(c3ccc(NC(=O)[C@@H]4CCCN4C(=O)OCc4ccccc4)cc3)C(=O)N2Cc2ccco2)cc1 (stereo partly drawn) and answer again.
100 to 1000 nM

---

System: HCV replicon (HCV 1b-377-neo replicon cells)
Test: HCV replicon cell line FRET assay
Type: cell-based
Conditions: Hepatitis C virus; HCV replicon cell line, FRET assay; read-out: Replicon Inhibition Range EC50
pEC50: −log10 of the molar value.
outcome-measure: pEC50

Below, each entry is followed by its recorded pEC50 result.
# molecule, pEC50
measured = [
    ("CC(C)(C)O[C@@H]1C[C@@H](C(=O)Nc2ccc(C3S/C(=N\\c4ccc(N5CCOCC5)cc4)N(Cc4ccccn4)C3=O)cc2)N(C(=O)OCc2ccccc2)C1 (stereo partly drawn)", "5.30 to 6.00"),
    ("Cc1cnc(CN2C(=O)C(c3ccc(NC(=O)[C@@H]4CCCN4C(=O)Cc4ccccc4)cc3)S/C2=N\\c2ccc(N3CCOCC3)cc2)cn1 (stereo partly drawn)", "> 7.00"),
]

In the following, a different molecule is considered.
# pEC50 lookup, item O=C(Nc1ccc(C2S/C(=N\c3ccc(N4CCOCC4)cc3)N(Cc3ccccn3)C2=O)cc1)[C@@H]1C[C@@H](O)CN1C(=O)OCc1ccccc1 (stereo partly drawn)
6.00 to 7.00

---

System: HCV replicon (HCV 1b-377-neo replicon cells)
Assay: HCV replicon cell line FRET assay
Assay type: cell-based
Settings: Hepatitis C virus; HCV replicon cell line, FRET assay; read-out: Replicon Inhibition Range EC50
pEC50: −log10 of the molar value.
Recorded pEC50 for the following molecules

# molecule, system-tested, pEC50
data = [
    ("C[C@H](NC(=O)OCc1ccccc1)C(=O)Nc1ccc(C2S/C(=N\\c3cccc(OC(F)(F)F)c3)N(Cc3ccco3)C2=O)cc1 (stereo partly drawn)", "HCV replicon (HCV 1b-377-neo replicon cells)", "6.00 to 7.00"),
    ("C[C@H](NC(=O)OCc1ccccc1)C(=O)Nc1ccc(C2S/C(=N\\c3cccc(F)c3)N(Cc3ccccn3)C2=O)cc1 (stereo partly drawn)", "HCV replicon (HCV 1b-377-neo replicon cells)", "> 7.00"),
    ("C[C@H](NC(=O)OCc1ccccc1)C(=O)Nc1ccc(C2S/C(=N\\c3cccc4ccncc34)N(Cc3ccco3)C2=O)cc1 (stereo partly drawn)", "HCV replicon (HCV 1b-377-neo replicon cells)", "> 7.00"),
    ("C[C@H](NC(=O)OCc1ccccc1)C(=O)Nc1ccc(C2S/C(=N\\c3cccc(F)c3)N(Cc3ccc(OC(F)(F)F)cc3)C2=O)cc1 (stereo partly drawn)", "HCV replicon (HCV 1b-377-neo replicon cells)", "5.30 to 6.00"),
]

Report pEC50 for O=C(Nc1ccc(C2S/C(=N\c3ccc(N4CCOCC4)cc3)N(Cc3ccccn3)C2=O)cc1)[C@@H]1CCCN1C(=O)Cc1c(Cl)cccc1Cl (stereo partly drawn) please.
> 7.00

Note, next up: O=C(Nc1ccc(C2S/C(=N\c3cc(F)cc(F)c3)N(Cc3ccco3)C2=O)cc1)[C@@H]1CCCN1C(=O)OCc1ccccc1 (stereo partly drawn)
6.00 to 7.00

Lookup C[C@H](NC(=O)OCc1ccccc1)C(=O)Nc1ccc(C2SC3=Nc4ccccc4CN3C2=O)cc1 (stereo partly drawn)
5.30 to 6.00

Lookup O=C(Nc1ccc(C2S/C(=N\c3cccc(F)c3)N(Cc3ccccc3)C2=O)cc1)[C@@H]1CCCN1C(=O)OCc1ccccc1 (stereo partly drawn)
6.00 to 7.00

And for Cc1cc(F)ccc1/N=C1\SC(c2ccc(NC(=O)[C@H](C)NC(=O)OCc3ccccc3)cc2)C(=O)N1Cc1ccco1 (stereo partly drawn) ?
5.30 to 6.00

---

Listed next: entries and their corresponding EC50.
Tested on: HCV replicon (HCV 1b-377-neo replicon cells)
Test: HCV replicon cell line FRET assay
Format: cell-based
Settings: Hepatitis C virus; HCV replicon cell line, FRET assay; read-out: Replicon Inhibition Range EC50

These solved cases illustrate the format of a correct answer.
# compound, EC50
records = [
    ("C[C@H](NC(=O)Cc1ccccc1)C(=O)Nc1ccc(C2S/C(=N\\c3cccc(F)c3)N(Cc3ccccn3)C2=O)cc1 (stereo partly drawn) [Compound 96]", "< 100 nM"),
    ("O=C(Nc1ccc(C2S/C(=N\\c3ccc(N4CCOCC4)cc3)N(Cc3ccccn3)C2=O)cc1)[C@@H]1CCCN1C(=O)C1(c2ccc(F)cc2)CCCC1 (stereo partly drawn) [Compound 105]", "100 to 1000 nM"),
    ("O=C(Nc1ccc(C2S/C(=N\\c3ccc(N4CCOCC4)cc3)N(Cc3ccccn3)C2=O)cc1)[C@@H]1CCCN1C(=O)C(c1ccccc1)c1ccccc1 (stereo partly drawn) [Compound 107]", "< 100 nM"),
    ("C/N=C1\\SC(c2ccc(NC(=O)[C@@H]3CCCN3C(=O)Cc3ccccc3)cc2)C(=O)N1Cc1ccccn1 (stereo partly drawn) [Compound 101]", "< 100 nM"),
    ("C[C@H](NC(=O)OCc1ccccc1)C(=O)Nc1ccc(C2S/C(=N\\c3cccc(F)c3)N(CCOc3ccccc3)C2=O)cc1 (stereo partly drawn) [Compound 21]", "1000 to 5000 nM"),
    ("CC(C)/N=C1\\SC(c2ccc(NC(=O)[C@H](C)NC(=O)[C@@H](O)c3ccccc3)cc2)C(=O)N1Cc1ccccn1 (stereo partly drawn) [Compound 120]", "< 100 nM"),
    ("O=C(Nc1ccc(C2S/C(=N\\c3cccc(F)c3)N(Cc3ccco3)C2=O)cc1)[C@@H]1CCCN1C(=O)Cc1ccc(Cl)cc1 (stereo partly drawn) [Compound 128]", "100 to 1000 nM"),
    ("O=C(Nc1ccc(C2S/C(=N\\c3cccc(F)c3)N(Cc3ccco3)C2=O)cc1)[C@@H]1CCCN1C(=O)OCc1ccccc1 (stereo partly drawn) [Compound 2]", "> 5000 nM"),
]

# next compound below
Name the reported EC50 value associated with the compound CN1C(=O)C(c2ccc(NC(=O)[C@@H]3CCCN3C(=O)OCc3ccccc3)cc2)S/C1=N\Cc1ccccn1 (stereo partly drawn) [Compound 87]
100 to 1000 nM
